- test: TD-6450 phase I clinical study (SAD/MAD): pharmacokinetics
- Type: in vivo, human
- recorded.conditions: both sexes, human, plasma, oral, 120 mg, MAD 120 mg, day 1; read-out: Cmax Mean ± SD, D1
readout.type: Cmax at 1 day (nM)
Give just the numeric value; nM need not be written.

Look at this molecule and give its reported Cmax at 1 day. CNC(=O)N1C[C@@H](C)N(c2ccc(C(=O)Nc3ccc(-c4ccc(-c5c[nH]c([C@@H]6CCCN6C(=O)[C@@H](NC(=O)OC)C(C)C)n5)cc4)c(OC(F)(F)F)c3)cn2)C[C@@H]1C
216

---

- test: TD-6450 phase I clinical study (SAD/MAD): pharmacokinetics
- Format: in vivo, human
- recorded.conditions: female, human, plasma, oral, 60 mg, Female subjects, SAD arm NCT02022306, Dose 60.00, 6 Hours; read-out: Concentration
readout.type: concentration at 6 h (ng/mL)
Write down the numeric answer in ng/mL and omit the unit.

What concentration at 6 h value was documented for this molecule, CNC(=O)N1C[C@@H](C)N(c2ccc(C(=O)Nc3ccc(-c4ccc(-c5c[nH]c([C@@H]6CCCN6C(=O)[C@@H](NC(=O)OC)C(C)C)n5)cc4)c(OC(F)(F)F)c3)cn2)C[C@@H]1C ?
109
